B1: EPB41L3 (parent)
chain: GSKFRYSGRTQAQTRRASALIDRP

- Variants of: B1
- procedureSummary: protein stability index of a GFP-peptide fusion (GPS, HEK-293T) (PSI 1-6); higher = more stable;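 note: lentivirally expressed fusions sorted by FACS into six bins by GFP to DsRed ratio, PSI derived from sequencing read proportions per bin multiplied by bin number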
- experimentalConditions: c terminus: a fixed tail appended
Below, each entry is listed with its recorded protein stability index.

Study these solved cases before continuing.
variantname=G8N val=3.13
variantname=S2E val=3.98
variantname=Y6R val=4.23
variantname=A19S val=3.41
variantname=A17S val=3.12

Task: # protein stability index lookup, item "Q11V"
Output: 2.78

Task: # protein stability index lookup, item "S7K"
Output: 3.79

Task: # protein stability index lookup, item "F4Q"
Output: 4.47

Task: # protein stability index lookup, item "L20T"
Output: 3.62

Task: # protein stability index lookup, item "K3R"
Output: 2.83

Task: # protein stability index lookup, item "R15S"
Output: 2.81

Origin of the recorded values: the supplement of paper PMC10567573
